- system-under-test: human COX-1 (Homo sapiens)
- Sequence (P23219 24-599): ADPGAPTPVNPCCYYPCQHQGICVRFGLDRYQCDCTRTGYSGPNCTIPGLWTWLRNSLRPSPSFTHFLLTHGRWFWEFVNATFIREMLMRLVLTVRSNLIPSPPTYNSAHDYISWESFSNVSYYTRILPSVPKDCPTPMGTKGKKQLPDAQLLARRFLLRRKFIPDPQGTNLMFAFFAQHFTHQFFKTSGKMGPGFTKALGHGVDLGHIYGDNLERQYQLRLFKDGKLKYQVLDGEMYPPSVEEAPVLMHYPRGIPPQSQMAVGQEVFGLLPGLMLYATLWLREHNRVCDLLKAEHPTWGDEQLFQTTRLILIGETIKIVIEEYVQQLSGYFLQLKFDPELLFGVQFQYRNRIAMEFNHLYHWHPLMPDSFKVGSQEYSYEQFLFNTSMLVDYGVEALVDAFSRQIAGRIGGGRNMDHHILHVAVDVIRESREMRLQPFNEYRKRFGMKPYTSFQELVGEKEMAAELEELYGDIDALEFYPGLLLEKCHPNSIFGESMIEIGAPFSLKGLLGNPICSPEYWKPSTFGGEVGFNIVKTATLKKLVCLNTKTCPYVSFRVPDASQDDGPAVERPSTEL
- assay-procedure: Inhibition of PGE2 release in COS cells stably transfected with human COX-1
- experimental-context: COS cells transfected with human COX-1, 30 μM arachidonic acid
measured-quantity: IC50 (µM)
Field: numeric (µM). Do not append units.

Example entries begin here.
compound	system-under-test	unit-tag	IC50
CS(=O)(=O)c1ccc(-c2cc(C(F)(F)F)nc(Oc3ccc(F)cc3)n2)cc1 [Example 1.1]	human COX-1 (Homo sapiens)	µM	81.3
COc1ccc(-c2nn3ncccc3c2-c2ccc(S(C)(=O)=O)cc2)cc1 [2.2(ii)]	human COX-1 (Homo sapiens)	µM	3.88
CCOc1ccc(-c2nn3ncccc3c2-c2ccc(S(N)(=O)=O)cc2)cc1 [2.6(iv)]	human COX-1 (Homo sapiens)	µM	3.83

Okay, now this compound:
Exercise: Give the reported IC50 for COc1ccc(Oc2nc(-c3ccc(S(C)(=O)=O)cc3)cc(C(F)(F)F)n2)cc1 [Example 1.3] (system: human COX-1 (Homo sapiens)).
Solution: 2.92
